Provenance of the data: patent US8299023

measured-target: Y4R
measurement-protocol: cell-based or functional assay
Numbered stars: 1 amine (or outer) side, 2 acyl side, 3 side chain; on linkers, the order of the positions; unused ones are H or OH. Square brackets hold non-standard residues; d marks the D form. Primed or numbered codes have the meaning given here. HomPqa = 3-hydroxy-2-(4-oxo-6-piperazin-1-yl-4H-quinazolin-3-yl)-propionic acid, O=C(C(CO[*:3])n1cnc2ccc(N3CCN([*:1])CC3)cc2c1=O)[*:2]; Dqa = (6-[1,4]diazepan-1-yl-4-oxo-4H-quinazolin-3-yl)-acetic acid, O=C(Cn1cnc2ccc(N3CCCN([*:1])CC3)cc2c1=O)[*:2]; Appa = (6-Amino-2-piperazin-1-yl-9H-purin-8-yl)-acetic acid, Nc1nc(N2CCN([*:1])CC2)nc2[nH]c(CC(=O)[*:2])nc12; Cba′ = (4-Aminomethyl-biphenyl-3-yl)-acetic acid, O=C(Cc1cc(-c2ccccc2)ccc1CN[*:1])[*:2]; Bqa = ((1R,4S)-6-2-Aza-bicyclo[2.2.1]hept-5-yl-4-oxo-4H-quinazolin)-acetic acid; Ppa = (2-piperazin-1-yl-purin-7-yl)-acetic acid; NMeR = CN[C@@H](CCCNC(=N)N)C(=O)O
Entries and their Y4R EC50 (nM) FLIPR

Past entries and their recorded results:
Ac-IK[Dqa]RHYLNWVTRQ[NMeR]Y-NH2 [Ac-Ile-Lys-Dqa-Arg-His-Tyr-Leu-Asn-Trp-Val-Thr-Arg-Gln-(NMe)Arg-Tyr-NH2] : > 9000 nM
Ac-IK[Cba′]RHYLNWVTRQ[NMeR]Y-NH2 [Ac-Ile-Lys-Cba-Arg-His-Tyr-Leu-Asn-Trp-Val-Thr-Arg-Gln-(NMe)Arg-Tyr-NH2] : > 30000 nM
Ac-IK[HomPqa]RHYLNWVTRQ[NMeR]Y-NH2 [Ac-Ile-Lys-HomPqa-Arg-His-Tyr-Leu-Asn-Trp-Val-Thr-Arg-Gln-(NMe)Arg-Tyr-NH2] : 2790 nM

**Q:** # query: Y4R EC50 (nM) FLIPR of entry Ac-IK[Ppa]RHYLNWVTRQ[NMeR]Y-NH2 [Ac-Ile-Lys-Ppa-Arg-His-Tyr-Leu-Asn-Trp-Val-Thr-Arg-Gln-(NMe)Arg-Tyr-NH2]
**A:** > 5000 nM

**Q:** # query: Y4R EC50 (nM) FLIPR of entry Ac-IK[Bqa]RHYLNWVTRQ[NMeR]Y-NH2 [Ac-Ile-Lys-Bqa-Arg-His-Tyr-Leu-Asn-Trp-Val-Thr-Arg-Gln-(NMe)Arg-Tyr-NH2]
**A:** > 5000 nM

**Q:** # query: Y4R EC50 (nM) FLIPR of entry Ac-IK[Appa]RHYLNWVTRQ[NMeR]Y-NH2 [Ac-Ile-Lys-Appa-Arg-His-Tyr-Leu-Asn-Trp-Val-Thr-Arg-Gln-(NMe)Arg-Tyr-NH2]
**A:** > 5000 nM
